assay.protocol: refractive index (Na D-line) (dimensionless)
assay.conditions: 303.15 K; 101.33 kPa; Liquid
measure.name: refractive index

>>> value_reported("CC(C)S(=O)C(C)C")
1.462
>>> value_reported("CCCS(=O)CCC [dipropyl sulfoxide]")
1.458
>>> value_reported("CC[S+]([O-])CC [diethyl sulfoxide]")
1.466
>>> value_reported("C[S+](C)[O-] [dimethyl sulfoxide]")
1.474

====

assay.conditions: 323.15 K
measure.name: surface tension liquid-gas (mN/m)

>>> value_reported("C[S+](C)[O-] [dimethyl sulfoxide]")
38.5
>>> value_reported("CC[S+]([O-])CC [diethyl sulfoxide]")
32.4
>>> value_reported("CCCS(=O)CCC [dipropyl sulfoxide]")
29.9
>>> value_reported("CC(C)S(=O)C(C)C [2,2'-sulfinylbispropane]")
29.5

====

assay.conditions: 328.15 K
measure.name: surface tension liquid-gas (mN/m)

>>> value_reported("CCCS(=O)CCC [dipropyl sulfoxide]")
29.4
>>> value_reported("CC[S+]([O-])CC [diethyl sulfoxide]")
32
>>> value_reported("CC(C)S(=O)C(C)C [2,2'-sulfinylbispropane]")
29.1
>>> value_reported("C[S+](C)[O-] [dimethyl sulfoxide]")
37.9

====

assay.protocol: refractive index (Na D-line) (dimensionless)
assay.conditions: 308.15 K; 101.33 kPa; Liquid
measure.name: refractive index

>>> value_reported("CC(C)S(=O)C(C)C [2,2'-sulfinylbispropane]")
1.4595
>>> value_reported("CC[S+]([O-])CC [diethyl sulfoxide]")
1.464
>>> value_reported("CCCS(=O)CCC [dipropyl sulfoxide]")
1.456
>>> value_reported("C[S+](C)[O-] [dimethyl sulfoxide]")
1.472

====

assay.conditions: 318.15 K
measure.name: surface tension liquid-gas (mN/m)

>>> value_reported("CC(C)S(=O)C(C)C")
29.8
>>> value_reported("CCCS(=O)CCC [dipropyl sulfoxide]")
30.5
>>> value_reported("CC[S+]([O-])CC [diethyl sulfoxide]")
32.7
>>> value_reported("C[S+](C)[O-] [dimethyl sulfoxide]")
39.1

====

assay.protocol: refractive index (Na D-line) (dimensionless)
assay.conditions: 298.15 K; 101.33 kPa; Liquid
measure.name: refractive index

>>> value_reported("CC(C)S(=O)C(C)C [2,2'-sulfinylbispropane]")
1.4645
>>> value_reported("CC[S+]([O-])CC [diethyl sulfoxide]")
1.468
>>> value_reported("C[S+](C)[O-] [dimethyl sulfoxide]")
1.4765
>>> value_reported("CCCS(=O)CCC [dipropyl sulfoxide]")
1.4595

====

assay.conditions: 303.15 K
measure.name: surface tension liquid-gas (mN/m)

>>> value_reported("CCCS(=O)CCC [dipropyl sulfoxide]")
32
>>> value_reported("C[S+](C)[O-] [dimethyl sulfoxide]")
41
>>> value_reported("CC(C)S(=O)C(C)C [2,2'-sulfinylbispropane]")
31.2
>>> value_reported("CC[S+]([O-])CC [diethyl sulfoxide]")
34.1

====

assay.conditions: 313.15 K
measure.name: surface tension liquid-gas (mN/m)

>>> value_reported("CCCS(=O)CCC [dipropyl sulfoxide]")
31
>>> value_reported("CC[S+]([O-])CC [diethyl sulfoxide]")
33.2
>>> value_reported("C[S+](C)[O-] [dimethyl sulfoxide]")
39.7
>>> value_reported("CC(C)S(=O)C(C)C")
30.3
